# run_description: clinical
# condition_description: human, plasma, oral
assay_endpoint: half-life

Query (molecule): "CN(C)C[C@H]1CN(CCc2ccsc2)CC[C@]1(O)c1cccc(C(N)=O)c1" ; field requested: half-life 29.4 to 31.4 h

====

# run_description: clinical
# condition_description: human, plasma, po, 200 mg, AUC0-last (zero to 24 hours postdose), Mean, 200 mg DS (Fasted), single oral dose, N = 6
assay_endpoint: AUC(0-t)
# output: number + unit

Query (compound): CN(C)C[C@H]1CN(CCc2ccsc2)CC[C@]1(O)c1cccc(C(N)=O)c1 [Compound I] ; field requested: AUC(0-t) 346 ng·h/mL
